Below, each of the molecules is paired with its reported IC50 value.
- System: ACHN
- ASSAY INFO: cells
- Format: cell-based, human
- CONDITIONS USED: read-out: IC50
Where a name gives a salt, the structure may show the parent alone.
QUANTITY NAME: IC50 (µM)

MOLECULE	EXPERIMENTAL VALUE
CCOC(=O)[C@H](Cc1ccccc1)NC(=O)[C@@H](N)Cc1ccc(N(CCCl)CCCl)cc1 [JV22, hydrochloride]	0.17
CCOC(=O)[C@H](Cc1ccc(O)cc1)NC(=O)[C@@H](N)Cc1ccc(N(CCCl)CCCl)cc1 [JV24, hydrochloride]	0.32
N.N.[Cl][Pt][Cl] [Cisplatin, cisplatin, reference compound]	17.8

----------
Entries and their pIC50 values follow.
- Tested on: U-1752
- ASSAY INFO: cells
- Assay type: cell-based
pIC50: −log10 of the molar value.
QUANTITY NAME: pIC50

COMPOUND	EXPERIMENTAL VALUE
COc1cccc2c1C(=O)c1c(O)c3c(c(O)c1C2=O)C[C@@](O)(C(=O)CO)C[C@@H]3O[C@H]1C[C@H](N)[C@H](O)[C@H](C)O1	6.38
CC(=O)O[C@@]12CO[C@@H]1C[C@H](O)[C@@]1(C)C(=O)[C@H](O)C3=C(C)[C@@H](OC(=O)[C@H](O)[C@@H](NC(=O)OC(C)(C)C)c4ccccc4)C[C@@](O)([C@@H](OC(=O)c4ccccc4)[C@H]21)C3(C)C	6.34
CC[C@@]1(O)C(=O)OCc2c1cc1n(c2=O)Cc2cc3c(CN(C)C)c(O)ccc3nc2-1 [Topotecan, topotecan, reference compound]	4.55

----------
- System: CEM/S
- ASSAY INFO: cells
- Format: cell-based, human
- CONDITIONS USED: CEM/S; 72 hours incubation; read-out: IC50
Where a name gives a salt, the structure may show the parent alone.
QUANTITY NAME: log10 IC50 (log10 of the value in nM)

MOLECULE	log10 IC50
CCOC(=O)[C@H](Cc1ccc(OC)cc1)NC(=O)[C@@H](N)Cc1ccc(N(CCCl)CCCl)cc1 [JV25, hydrochloride]	1.60
CCOC(=O)[C@H](Cc1ccc(F)cc1)NC(=O)[C@H](Cc1cccc(N(CCCl)CCCl)c1)NC(=O)[C@@H]1CCCN1 [Example P2, hydrochloride, reference compound]	2.97
CCOC(=O)[C@H](Cc1ccc(F)cc1)NC(=O)[C@@H](N)Cc1ccc(N(CCCl)CCCl)cc1.Cl [Example J1, hydrochloride]	1.48
CCOC(=O)[C@H](Cc1ccc(N)cc1)NC(=O)[C@@H](N)Cc1ccc(N(CCCl)CCCl)cc1 [JV29, hydrochloride]	1.78
CCOC(=O)[C@H](Cc1ccc([N+](=O)[O-])cc1)NC(=O)[C@@H](N)Cc1ccc(N(CCCl)CCCl)cc1 [JV26, hydrochloride]	1.70
CC(C)OC(=O)[C@H](Cc1ccc(F)cc1)NC(=O)[C@@H](N)Cc1ccc(N(CCCl)CCCl)cc1.Cl [JV28, hydrochloride]	1.78
O=c1[nH]cc(F)c(=O)[nH]1 [Example 5-FU, 5-FU, reference compound]	4.76
CCOC(=O)[C@H](Cc1ccc(N(CCCl)CCCl)cc1)NC(=O)[C@@H](N)Cc1ccc(N(CCCl)CCCl)cc1 [JV27, hydrochloride]	2.15
CCOC(=O)[C@H](Cc1ccc(F)cc1)NC(=O)[C@H](Cc1ccc(N(CCCl)CCCl)cc1)NC(=O)[C@@H]1CCCN1.Cl [Example J3, hydrochloride]	1.78

----------
- Tested on: PHTC samples from 9 patients with hematological and 18 patients with solid tumours
- ASSAY INFO: Circumvention of melphalan resistance: FMCA classification of PHTC samples as LDR, IDR, EDR
- Type: cell-based, human
- CONDITIONS USED: Intermediate drug resistance; tested at 4 µM; percent of samples
Where a name gives a salt, the structure may show the parent alone.

COMPOUND	Number of samples (%) IDR
CCOC(=O)[C@H](Cc1ccc(F)cc1)NC(=O)[C@H](Cc1cccc(N(CCCl)CCCl)c1)NC(=O)[C@@H]1CCCN1 [Example P2, hydrochloride, reference compound]	21
CC(C)OC(=O)[C@H](Cc1ccc(F)cc1)NC(=O)[C@@H](N)Cc1ccc(N(CCCl)CCCl)cc1.Cl [JV28]	12
CCOC(=O)[C@H](Cc1ccc(F)cc1)NC(=O)[C@H](Cc1ccc(N(CCCl)CCCl)cc1)NC(=O)[C@@H]1CCCN1.Cl [Example J3]	15
CCOC(=O)[C@H](Cc1ccc(F)cc1)NC(=O)[C@@H](N)Cc1ccc(N(CCCl)CCCl)cc1.Cl [Example J1]	18

----------
Here the recorded IC50 is given for each entry.
- Test system: 8226Dox40
- ASSAY INFO: cells
- Assay type: cell-based, human
- CONDITIONS USED: Homo sapiens, 72 h

COMPOUND	UNIT ABBREV	IC50
COc1cccc2c1C(=O)c1c(O)c3c(c(O)c1C2=O)C[C@@](O)(C(=O)CO)C[C@@H]3O[C@H]1C[C@H](N)[C@H](O)[C@H](C)O1	nM	4970
CC[C@@]1(O)C(=O)OCc2c1cc1n(c2=O)Cc2cc3c(CN(C)C)c(O)ccc3nc2-1 [Topotecan, topotecan, reference compound]	nM	590
CC[C@]1(O)C[C@H]2CN(CCc3c([nH]c4ccccc34)[C@@](C(=O)OC)(c3cc4c(cc3OC)N(C=O)[C@H]3[C@@](O)(C(=O)OC)[C@H](OC(C)=O)[C@]5(CC)C=CCN6CC[C@]43[C@@H]65)C2)C1 [Vincristine, vincristine, reference compound]	nM	900

----------
- System: NCI-H611
- ASSAY INFO: cells
- Type: cell-based
pIC50: −log10 of the molar value.
As shown below, each of these molecules has a reported pIC50 value.

MOLECULE	pIC50
CC[C@@]1(O)C(=O)OCc2c1cc1n(c2=O)Cc2cc3c(CN(C)C)c(O)ccc3nc2-1 [Topotecan, topotecan, reference compound]	3.63
COc1cccc2c1C(=O)c1c(O)c3c(c(O)c1C2=O)C[C@@](O)(C(=O)CO)C[C@@H]3O[C@H]1C[C@H](N)[C@H](O)[C@H](C)O1	3.74
CC(=O)O[C@@]12CO[C@@H]1C[C@H](O)[C@@]1(C)C(=O)[C@H](O)C3=C(C)[C@@H](OC(=O)[C@H](O)[C@@H](NC(=O)OC(C)(C)C)c4ccccc4)C[C@@](O)([C@@H](OC(=O)c4ccccc4)[C@H]21)C3(C)C	5.96

----------
- Test system: U1285
- ASSAY INFO: cells
- Assay type: cell-based
- CONDITIONS USED: U1285, small cell lung cancer; read-out: IC50
pIC50: −log10 of the molar value.

MOLECULE	pIC50
CCOC(=O)[C@H](Cc1ccc(F)cc1)NC(=O)[C@@H](N)Cc1ccc(N(CCCl)CCCl)cc1.Cl [Example J1, hydrochloride]	7.40

----------
- Tested on: NCI-H157
- ASSAY INFO: cells
- Type: cell-based
- CONDITIONS USED: Homo sapiens, NCI-H157
The entries below are paired with their reported IC50.

COMPOUND	IC50 (nM)
CC[C@@]1(O)C(=O)OCc2c1cc1n(c2=O)Cc2cc3c(CN(C)C)c(O)ccc3nc2-1 [Topotecan, topotecan, reference compound]	4330
COc1cccc2c1C(=O)c1c(O)c3c(c(O)c1C2=O)C[C@@](O)(C(=O)CO)C[C@@H]3O[C@H]1C[C@H](N)[C@H](O)[C@H](C)O1	200
CC(=O)O[C@@]12CO[C@@H]1C[C@H](O)[C@@]1(C)C(=O)[C@H](O)C3=C(C)[C@@H](OC(=O)[C@H](O)[C@@H](NC(=O)OC(C)(C)C)c4ccccc4)C[C@@](O)([C@@H](OC(=O)c4ccccc4)[C@H]21)C3(C)C	100

----------
- System: NCI-H23
- ASSAY INFO: cells
- Assay type: cell-based
- CONDITIONS USED: read-out: IC50
QUANTITY NAME: IC50 (µM)

MOLECULE	TESTED SYSTEM	QUANTITY NAME	UNIT ABBREV	EXPERIMENTAL VALUE
N.N.[Cl][Pt][Cl] [Cisplatin, cisplatin, reference compound]	NCI-H23	IC50	µM	11.6

----------
- Tested on: primary cultures of human tumor cells from patients (PHTC), Total
- ASSAY INFO: FMCA in PHTC cultures, Table 4, total
- CONDITIONS USED: 4 µM; n=19-31; 4320 min
Where a name gives a salt, the structure may show the parent alone.
Tumour cell survival index (%) Total listing for selected compounds.
QUANTITY NAME: Tumour cell survival index (%) Total

COMPOUND	EXPERIMENTAL VALUE
CCOC(=O)[C@H](Cc1ccc(F)cc1)NC(=O)[C@H](Cc1ccc(N(CCCl)CCCl)cc1)NC(=O)[C@@H]1CCCN1.Cl	25.9%
CC(C)OC(=O)[C@H](Cc1ccc(F)cc1)NC(=O)[C@@H](N)Cc1ccc(N(CCCl)CCCl)cc1.Cl	30.4%
CCOC(=O)[C@H](Cc1ccc(F)cc1)NC(=O)[C@@H](N)Cc1ccc(N(CCCl)CCCl)cc1.Cl	40.9%
CCOC(=O)[C@H](Cc1ccc(F)cc1)NC(=O)[C@H](Cc1cccc(N(CCCl)CCCl)c1)NC(=O)[C@@H]1CCCN1 [Example P2, hydrochloride, reference compound]	46.1%

The reported numbers originate from patent EP1290011B1.
